Target: Runt-related transcription factor 1 (Homo sapiens) + Core-binding factor subunit beta (Homo sapiens) (UniProt Q01196+Q13951)
Sequence (Q01196 whole entry, looked up, the tested form may be a part): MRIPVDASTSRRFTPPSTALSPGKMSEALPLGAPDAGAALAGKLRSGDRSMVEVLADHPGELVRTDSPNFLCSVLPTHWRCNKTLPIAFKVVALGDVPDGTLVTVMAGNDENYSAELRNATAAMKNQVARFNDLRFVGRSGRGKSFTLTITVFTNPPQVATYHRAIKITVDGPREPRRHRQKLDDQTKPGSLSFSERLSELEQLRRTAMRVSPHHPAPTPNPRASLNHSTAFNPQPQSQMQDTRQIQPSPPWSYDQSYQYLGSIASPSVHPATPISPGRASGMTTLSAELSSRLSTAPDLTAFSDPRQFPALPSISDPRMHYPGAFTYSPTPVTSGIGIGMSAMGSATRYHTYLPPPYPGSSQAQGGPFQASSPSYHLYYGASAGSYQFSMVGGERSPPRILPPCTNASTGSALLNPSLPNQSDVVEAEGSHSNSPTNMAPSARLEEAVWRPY
Sequence (Q13951 whole entry, looked up, the tested form may be a part): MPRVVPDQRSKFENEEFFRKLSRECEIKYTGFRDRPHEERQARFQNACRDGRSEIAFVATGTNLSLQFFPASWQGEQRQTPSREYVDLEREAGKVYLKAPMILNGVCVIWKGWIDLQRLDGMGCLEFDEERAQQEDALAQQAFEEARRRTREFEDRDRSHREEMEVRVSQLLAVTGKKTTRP
Experiment: Runt domain/CBFb interaction disruptors – biochemical, TR-FRET (AID 1502)
Conditions: TR-FRET RUNX1 Runt domain-CBFb binding; at 20 µM
Some of the results follow. Activity calls are given as the source filed them. Rule as the data show it: active = inhibition above about 40%; inactive = the rest.
Form entry, call: pick from 1.0 = active, 0.0 = inactive

Reference set, count: 5
compound	labelValue
CCCN1C2=C(C(=O)CCC2)C(c2ccc(O)c(Br)c2)C2=C1CCCC2=O	0.0
O=c1[nH]c2ccccc2n2c(-c3ccccc3)nnc12	1.0
CC(C)(C)OC(=O)c1c(N)n(CCCN2CCCC2=O)c2nc3ccccc3nc12	0.0
CCC(=O)Nc1c(S(=O)(=O)c2ccccc2)c2nc3ccccc3nc2n1Cc1ccccc1	1.0
Cc1cc(F)ccc1S(=O)(=O)Nc1ncnc2scc(-c3ccc(F)cc3)c12	0.0

Called result for CC(=O)Oc1ccc2c(C)c(CC(C)O)c(=O)oc2c1 (configuration not stated)
0.0

Test call for this compound, please: CCN1/C(=C/C(=S)Nc2ccccc2)Sc2ccccc21
0.0

Assay outcome for CCCS(=O)(=O)N1CCCC(C(=O)NCc2ccco2)C1 (configuration not stated) : what was it?
0.0

Dear colleague, could you share the recorded outcome for Brc1ccc(CSc2ccc(-c3ccco3)nn2)cc1 when you have a moment?
1.0

Which result was noted for this compound in the test: OCCN1CCN(C(=S)c2ccc(-c3ccccc3)cc2)CC1
0.0

What call does the record list for CC(C)Cn1c(CCC(=O)O)ccc1-c1cccs1 ?
0.0

Test call for this compound, please: N#CC1=C(N)Oc2cc(O)ccc2C1C1CCCCC1 (configuration not stated)
0.0

For O=C1c2ccccc2C(Nc2ccc3c(c2)OCCO3)N1Cc1ccco1 (configuration not stated) , what call appears in the results of this test?
0.0

Every entry's value here was drawn from PubChem BioAssay AID1502.
